Protein target, amino acids: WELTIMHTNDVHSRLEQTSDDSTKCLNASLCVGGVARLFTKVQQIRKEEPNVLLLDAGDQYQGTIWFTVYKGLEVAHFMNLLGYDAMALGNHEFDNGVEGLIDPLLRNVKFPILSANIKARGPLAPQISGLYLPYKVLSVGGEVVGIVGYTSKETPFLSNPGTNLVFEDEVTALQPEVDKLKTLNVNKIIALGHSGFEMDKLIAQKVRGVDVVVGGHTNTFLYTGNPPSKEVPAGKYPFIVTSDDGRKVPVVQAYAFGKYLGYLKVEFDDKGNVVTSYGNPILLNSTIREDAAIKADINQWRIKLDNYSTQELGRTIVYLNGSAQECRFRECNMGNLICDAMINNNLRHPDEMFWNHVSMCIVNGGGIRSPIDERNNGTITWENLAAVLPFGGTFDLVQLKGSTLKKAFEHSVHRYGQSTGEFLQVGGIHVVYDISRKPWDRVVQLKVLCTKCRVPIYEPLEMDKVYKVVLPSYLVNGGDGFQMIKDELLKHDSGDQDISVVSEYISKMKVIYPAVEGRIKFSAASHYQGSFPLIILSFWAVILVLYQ
So basically: is IC50 under 2000 nM? Then 1. Not under? Then 0.

- SUBSTANCE SMILES: "O=C(Cc1c[nH]c2ccccc12)Nc1ccccc1OS(=O)(=O)c1ccc(F)cc1"
  LABEL VALUE: 1
- SUBSTANCE SMILES: "O=C(Cc1c[nH]c2ccccc12)Nc1ccccc1OS(=O)(=O)c1ccc(-c2ccccc2)cc1"
  LABEL VALUE: 1
- SUBSTANCE SMILES: "COc1ccc(S(=O)(=O)Oc2ccccc2NC(=O)Cc2c[nH]c3ccccc23)cc1"
  LABEL VALUE: 1
- SUBSTANCE SMILES: "Cc1ccc(S(=O)(=O)Oc2ccccc2NC(=O)Cc2c[nH]c3ccccc23)cc1Cl"
  LABEL VALUE: 1
- SUBSTANCE SMILES: "O=C(Cc1c[nH]c2ccccc12)Nc1ccccc1OS(=O)(=O)c1ccc(Cl)cc1"
  LABEL VALUE: 0

Please let me know if `O=C(Cc1c[nH]c2ccccc12)Nc1ccccc1OS(=O)(=O)c1ccc(Br)cc1` shows IC50 below 2000 nM.
1

is_below(IC50, 2000 nM) for `Cc1ccc(S(=O)(=O)Oc2ccccc2NC(=O)Cc2c[nH]c3ccccc23)cc1` ?
0

Input `O=C(Cc1c[nH]c2ccccc12)Nc1ccccc1OS(=O)(=O)C(F)(F)F` ; condition: IC50 strictly below 2000 nM. Does it hold?
0

Below 2000 nM on IC50? Entry `O=C(Cc1c[nH]c2ccccc12)Nc1ccccc1OS(=O)(=O)c1ccc(I)cc1`
1

----------
TGT: h-e5′NT (Homo sapiens)
TEST PROTOCOL: CD73
Format: biochemical
REPORTED ENDPOINT: pIC50
Answer as the number alone; pIC50 is minus log10 of concentration in mol/L.

- SUBSTANCE SMILES: "Cc1ccc(S(=O)(=O)Oc2ccccc2NC(=O)Cc2c[nH]c3ccccc23)cc1"
  TGT: "h-e5′NT (Homo sapiens)"
  VALUE MEASURED: 5.49

Memo: `O=C(Cc1c[nH]c2ccccc12)Nc1ccccc1OS(=O)(=O)Cc1ccccc1` , reported pIC50: 4.88

response.value for `O=C(Cc1c[nH]c2ccccc12)Nc1ccccc1OS(=O)(=O)c1ccc(F)cc1` (field: pIC50) = 6.43

----------
TGT: r-e5′NT (Rattus norvegicus)
TEST PROTOCOL: CD73
Type: biochemical
EXPERIMENTAL CONDITIONS: read-out: inhibition% r-e5′NT
Tag: fulfilled if measured inhibition at 100 µM is not below 30%, not fulfilled if it is.

Use these answered entries as a reference point.
- COMPOUND: "O=C(Cc1c[nH]c2ccccc12)Nc1ccccc1OS(=O)(=O)Cc1ccccc1 [5b]"
  TGT: "r-e5′NT (Rattus norvegicus)"
  LABEL VALUE: "fulfilled"
- COMPOUND: "CC(C)S(=O)(=O)Oc1ccccc1NC(=O)Cc1c[nH]c2ccccc12 [5k]"
  TGT: "r-e5′NT (Rattus norvegicus)"
  LABEL VALUE: "not fulfilled"
- COMPOUND: "O=C(Cc1c[nH]c2ccccc12)Nc1ccccc1OS(=O)(=O)c1ccccc1Cl [5a]"
  TGT: "r-e5′NT (Rattus norvegicus)"
  LABEL VALUE: "not fulfilled"

Now consider a different compound.
Confirm if inhibition at 100 µM reported for the compound O=C(Cc1c[nH]c2ccccc12)Nc1ccccc1OS(=O)(=O)c1cccs1 [5n] is 30% or above.
fulfilled

----------
TGT: h-e5′NT (Homo sapiens, UniProt P21589)
Sequence (P21589 27-574): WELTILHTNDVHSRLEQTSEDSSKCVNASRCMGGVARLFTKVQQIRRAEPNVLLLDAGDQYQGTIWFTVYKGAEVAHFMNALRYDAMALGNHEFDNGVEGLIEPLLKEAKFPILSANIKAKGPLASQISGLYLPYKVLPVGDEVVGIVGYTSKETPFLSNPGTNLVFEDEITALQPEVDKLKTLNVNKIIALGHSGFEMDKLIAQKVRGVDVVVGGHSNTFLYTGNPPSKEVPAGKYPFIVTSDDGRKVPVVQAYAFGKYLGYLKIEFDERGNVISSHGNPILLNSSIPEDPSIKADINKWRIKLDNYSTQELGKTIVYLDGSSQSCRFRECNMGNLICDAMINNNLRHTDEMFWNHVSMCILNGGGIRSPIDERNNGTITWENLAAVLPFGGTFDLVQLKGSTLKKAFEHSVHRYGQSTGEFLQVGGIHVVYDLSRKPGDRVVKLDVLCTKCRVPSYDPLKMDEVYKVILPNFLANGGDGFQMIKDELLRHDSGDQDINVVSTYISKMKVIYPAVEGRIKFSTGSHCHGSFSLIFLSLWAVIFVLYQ
pIC50 values, listed per item
Remember, pIC50 is on a log scale: it is -log10 of the molar concentration.

// below: answered compounds
- SUBSTANCE SMILES: "O=C(Cc1c[nH]c2ccccc12)Nc1ccccc1OS(=O)(=O)C(F)(F)F"
  TGT: "h-e5′NT (Homo sapiens, UniProt P21589)"
  pIC50: 6.05
- SUBSTANCE SMILES: "O=C(Cc1c[nH]c2ccccc12)Nc1ccccc1OS(=O)(=O)c1cccc2cccnc12"
  TGT: "h-e5′NT (Homo sapiens, UniProt P21589)"
  pIC50: 5.19
- SUBSTANCE SMILES: "O=C(Cc1c[nH]c2ccccc12)Nc1ccccc1OS(=O)(=O)c1ccc(I)cc1"
  TGT: "h-e5′NT (Homo sapiens, UniProt P21589)"
  pIC50: 5.31
- SUBSTANCE SMILES: "COc1ccc(S(=O)(=O)Oc2ccccc2NC(=O)Cc2c[nH]c3ccccc23)cc1"
  TGT: "h-e5′NT (Homo sapiens, UniProt P21589)"
  pIC50: 5.46
- SUBSTANCE SMILES: "Cc1ccc(S(=O)(=O)Oc2ccccc2NC(=O)Cc2c[nH]c3ccccc23)cc1Cl"
  TGT: "h-e5′NT (Homo sapiens, UniProt P21589)"
  pIC50: 5.36
- SUBSTANCE SMILES: "O=C(Cc1c[nH]c2ccccc12)Nc1ccccc1OS(=O)(=O)c1ccc(Cl)cc1"
  TGT: "h-e5′NT (Homo sapiens, UniProt P21589)"
  pIC50: 6.37

pIC50 of `O=C(Cc1c[nH]c2ccccc12)Nc1ccccc1OS(=O)(=O)c1ccccc1Cl` , assay on h-e5′NT (Homo sapiens, UniProt P21589), is 5.92

The recorded pIC50 with h-e5′NT (Homo sapiens, UniProt P21589) for `O=C(Cc1c[nH]c2ccccc12)Nc1ccccc1OS(=O)(=O)c1ccc(-c2ccccc2)cc1` was 6.25

Entry `O=C(Cc1c[nH]c2ccccc12)Nc1ccccc1OS(=O)(=O)c1ccc(Br)cc1` , tested on h-e5′NT (Homo sapiens, UniProt P21589), has a reported pIC50 of 6.16

----------
Protein target, amino acids: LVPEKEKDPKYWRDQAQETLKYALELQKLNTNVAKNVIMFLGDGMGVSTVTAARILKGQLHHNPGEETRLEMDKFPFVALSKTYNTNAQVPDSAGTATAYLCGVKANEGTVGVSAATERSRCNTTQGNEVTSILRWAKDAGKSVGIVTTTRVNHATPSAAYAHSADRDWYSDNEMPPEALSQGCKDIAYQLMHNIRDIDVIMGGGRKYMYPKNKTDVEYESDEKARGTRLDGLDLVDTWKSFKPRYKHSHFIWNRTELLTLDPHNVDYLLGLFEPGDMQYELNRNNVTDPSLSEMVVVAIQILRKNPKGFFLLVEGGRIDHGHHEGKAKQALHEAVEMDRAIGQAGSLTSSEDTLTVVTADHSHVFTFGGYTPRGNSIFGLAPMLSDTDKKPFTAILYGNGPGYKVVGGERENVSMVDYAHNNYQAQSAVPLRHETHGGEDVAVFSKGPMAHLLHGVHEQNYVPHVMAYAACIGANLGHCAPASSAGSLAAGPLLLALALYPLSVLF
REPORTED ENDPOINT: IC50 (nM)
Give the value, in units of nM, as a plain number.

- SUBSTANCE SMILES: "COc1ccc(S(=O)(=O)Oc2ccccc2NC(=O)Cc2c[nH]c3ccccc23)cc1"
  VALUE UNITS: "nM"
  IC50: 5180
- SUBSTANCE SMILES: "Cc1ccc(S(=O)(=O)Oc2ccccc2NC(=O)Cc2c[nH]c3ccccc23)cc1Cl"
  VALUE UNITS: "nM"
  IC50: 590
- SUBSTANCE SMILES: "O=C(Cc1c[nH]c2ccccc12)Nc1ccccc1OS(=O)(=O)c1ccc(I)cc1"
  VALUE UNITS: "nM"
  IC50: 2270
- SUBSTANCE SMILES: "O=C(Cc1c[nH]c2ccccc12)Nc1ccccc1OS(=O)(=O)c1ccccc1Cl"
  VALUE UNITS: "nM"
  IC50: 1600
- SUBSTANCE SMILES: "Cc1ccc(S(=O)(=O)Oc2ccccc2NC(=O)Cc2c[nH]c3ccccc23)cc1"
  VALUE UNITS: "nM"
  IC50: 3370

Notebook: `O=C(Cc1c[nH]c2ccccc12)Nc1ccccc1OS(=O)(=O)c1ccc(F)cc1` , IC50 read as 1480

Record `O=C(Cc1c[nH]c2ccccc12)Nc1ccccc1OS(=O)(=O)c1ccc(Cl)cc1` . Reported IC50: 1690

Item: `O=C(Cc1c[nH]c2ccccc12)Nc1ccccc1OS(=O)(=O)c1cccc2cccnc12` | IC50: 1300

Recorded result, `O=C(Cc1c[nH]c2ccccc12)Nc1ccccc1OS(=O)(=O)c1ccc(Br)cc1` , IC50: 6580

# compound `O=C(Cc1c[nH]c2ccccc12)Nc1ccccc1OS(=O)(=O)C(F)(F)F` ; its IC50 = 1680

Entry `O=C(Cc1c[nH]c2ccccc12)Nc1ccccc1OS(=O)(=O)c1ccc(-c2ccccc2)cc1` ; IC50 = 1060
